Assay: Study .3: single dose, cross-over, food effect study in healthy volunteers, pharmacokinetic parameters
Type: in vivo, human
Conditions: human, plasma, oral, 50 mg, 50 mg single dose, Study .3/fasted; read-out: tmax Median
endpoint_name: Tmax (h)
Numbers only, in h.

**Q:** Requested read-out: Tmax. Entry: OC[C@H]1O[C@@H](c2ccc(Cl)c(Cc3ccc(O[C@H]4CCOC4)cc3)c2)[C@H](O)[C@@H](O)[C@@H]1O [Compound (I.9)]
**A:** 1.02

====

Assay: Study .1: single dose study in healthy volunteers, pharmacokinetic parameters
Type: in vivo, human
Settings: human, plasma, oral, 50 mg, 50 mg single dose, Study .1, fasted; read-out: AUC0-inf gMean
endpoint_name: AUC(0-inf) (µM·h)
One number for each entry, in µM·h.

**Q:** Requested read-out: AUC(0-inf). Entry: OC[C@H]1O[C@@H](c2ccc(Cl)c(Cc3ccc(O[C@H]4CCOC4)cc3)c2)[C@H](O)[C@@H](O)[C@@H]1O [Compound (I.9)]
**A:** 8.46

====

Assay: Study .3: single dose, cross-over, food effect study in healthy volunteers, pharmacokinetic parameters
Type: in vivo, human
Settings: 50 mg single dose, Study .3/fasted; read-out: Cmax Min
endpoint_name: Cmax (nM)
Answers are plain numbers, in nM.

**Q:** Requested read-out: Cmax. Entry: OC[C@H]1O[C@@H](c2ccc(Cl)c(Cc3ccc(O[C@H]4CCOC4)cc3)c2)[C@H](O)[C@@H](O)[C@@H]1O
**A:** 878

====

Experiment: Study .4: 4-week treatment of diabetic patients, once daily, pharmacokinetic parameters
Assay type: in vivo, human
Settings: human, plasma, oral, 10 mg, 10 mg single dose, Study .4, fasted; read-out: tmax Mean
endpoint_name: Tmax (h)
Answers are plain numbers, in h.

**Q:** Requested read-out: Tmax. Entry: OC[C@H]1O[C@@H](c2ccc(Cl)c(Cc3ccc(O[C@H]4CCOC4)cc3)c2)[C@H](O)[C@@H](O)[C@@H]1O
**A:** 1.5

====

Assay: Study .5: single dose study in healthy Japanese volunteers, pharmacokinetic parameters
Format: in vivo, human
Conditions: human, plasma, oral, 25 mg, 25 mg single dose, Study .5, fasted; read-out: AUC0-inf gMean
endpoint_name: AUC(0-inf)

**Q:** Requested read-out: AUC(0-inf). Entry: OC[C@H]1O[C@@H](c2ccc(Cl)c(Cc3ccc(O[C@H]4CCOC4)cc3)c2)[C@H](O)[C@@H](O)[C@@H]1O [Compound (I.9)]
**A:** 6.13 µM·h

====

Test: Study .1: single dose study in healthy volunteers, pharmacokinetic parameters
Format: in vivo, human
Settings: human, plasma, oral, 10 mg, 10 mg single dose, Study .1, fasted; read-out: Cmax Mean
Method: 5. Pharmacokinetic Parameters The pharmacokinetic parameters of pharmaceutical compositions and pharmaceutical dosage forms are assessed in healthy volunteer and patient populations. […] For the quantification of plasma concentrations of the active ingredient, 2.7 mL of blood was collected and transferred into an EDTA (ethylendiaminetetraacetic acid)-anticoagulant blood drawing tube. […] Concentrations of active substance in EDTA human plasma samples were quantitated using a HPLC/MS/MS method. […]
endpoint_name: Cmax (nM)
One number for each entry, in nM.

**Q:** Requested read-out: Cmax. Entry: OC[C@H]1O[C@@H](c2ccc(Cl)c(Cc3ccc(O[C@H]4CCOC4)cc3)c2)[C@H](O)[C@@H](O)[C@@H]1O
**A:** 226
